target_of_assay: T1, human LIV-1 (human, UniProt Q13433 29-755)
T1 construct: whole, on cells; also called H-LIV1
T1 sequence (looked up): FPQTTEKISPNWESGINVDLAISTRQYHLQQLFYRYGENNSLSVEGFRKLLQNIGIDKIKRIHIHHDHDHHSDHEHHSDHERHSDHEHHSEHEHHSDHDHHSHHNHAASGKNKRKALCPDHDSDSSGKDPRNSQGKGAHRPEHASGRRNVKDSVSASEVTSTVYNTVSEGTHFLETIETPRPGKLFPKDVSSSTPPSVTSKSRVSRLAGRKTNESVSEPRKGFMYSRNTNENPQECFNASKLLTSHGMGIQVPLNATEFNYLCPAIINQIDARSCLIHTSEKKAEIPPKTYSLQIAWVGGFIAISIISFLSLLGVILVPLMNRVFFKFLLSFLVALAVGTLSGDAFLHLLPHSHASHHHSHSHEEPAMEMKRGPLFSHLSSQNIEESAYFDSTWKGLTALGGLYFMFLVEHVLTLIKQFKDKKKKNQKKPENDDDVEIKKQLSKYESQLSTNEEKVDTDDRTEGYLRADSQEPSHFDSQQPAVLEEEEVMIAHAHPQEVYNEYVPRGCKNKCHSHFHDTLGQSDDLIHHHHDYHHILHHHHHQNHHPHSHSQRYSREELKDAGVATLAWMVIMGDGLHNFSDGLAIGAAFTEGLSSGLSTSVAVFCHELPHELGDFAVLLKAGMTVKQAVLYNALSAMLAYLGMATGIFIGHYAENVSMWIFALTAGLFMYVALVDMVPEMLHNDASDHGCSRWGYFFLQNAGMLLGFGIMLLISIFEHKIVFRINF
protocol_text: FACS, HEK293/H_LIV-1 cells
measured_quantity: Top (MFI)
// unit must come after the numeric part

Examples with answers:
binder	Top (MFI)
124H4D11.p2.z4 (antibody, V domains shown) VH: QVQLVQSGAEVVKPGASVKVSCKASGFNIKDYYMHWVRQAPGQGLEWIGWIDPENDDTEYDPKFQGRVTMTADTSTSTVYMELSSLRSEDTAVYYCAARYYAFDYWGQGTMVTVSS VL: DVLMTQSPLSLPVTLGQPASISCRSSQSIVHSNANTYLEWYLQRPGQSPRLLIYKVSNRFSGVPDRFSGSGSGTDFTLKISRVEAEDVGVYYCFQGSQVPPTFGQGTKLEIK	19900 MFI
290F10G10.p1.Z2 (antibody, V domains shown, also called 290F10G10.z2; LM-001) VH: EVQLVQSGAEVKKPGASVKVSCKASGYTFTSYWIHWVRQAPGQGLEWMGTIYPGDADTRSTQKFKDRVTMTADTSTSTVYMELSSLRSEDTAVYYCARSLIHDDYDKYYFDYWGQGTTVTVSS VL: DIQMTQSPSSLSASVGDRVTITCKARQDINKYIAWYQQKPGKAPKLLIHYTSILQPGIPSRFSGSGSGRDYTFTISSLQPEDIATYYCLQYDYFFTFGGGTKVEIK	17800 MFI
290F10G10.z2-Eribulin (antibody, V domains shown, Eribulin drug moiety conjugated; site and chain not stated) VH: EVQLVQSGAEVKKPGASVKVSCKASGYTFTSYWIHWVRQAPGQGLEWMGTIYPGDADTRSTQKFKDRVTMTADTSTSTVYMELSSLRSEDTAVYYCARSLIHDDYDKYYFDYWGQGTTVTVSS VL: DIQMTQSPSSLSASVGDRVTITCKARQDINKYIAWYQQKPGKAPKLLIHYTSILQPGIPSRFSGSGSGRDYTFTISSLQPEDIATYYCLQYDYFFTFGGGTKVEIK	18800 MFI

Lab note: next binder to report on.
[ask] Given the binder 5D6B10.Z7 (antibody, V domains shown) VH: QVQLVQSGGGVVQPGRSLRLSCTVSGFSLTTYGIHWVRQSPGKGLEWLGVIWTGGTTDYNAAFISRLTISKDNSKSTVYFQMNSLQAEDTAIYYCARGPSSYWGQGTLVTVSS VL: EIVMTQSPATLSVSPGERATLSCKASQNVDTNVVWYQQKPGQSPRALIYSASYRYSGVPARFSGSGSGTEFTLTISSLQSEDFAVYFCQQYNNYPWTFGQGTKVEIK , write its reported Top (MFI).
[reply] 102000 MFI
